Target: T1, human CD33 (human, UniProt P20138 18-259, limits assumed)
T1 construct: Human CD33 immobilized on the BLI sensor tip or the BIAcore C1 chip; also called Siglec-3
T1 sequence (P20138 18-259 limits assumed): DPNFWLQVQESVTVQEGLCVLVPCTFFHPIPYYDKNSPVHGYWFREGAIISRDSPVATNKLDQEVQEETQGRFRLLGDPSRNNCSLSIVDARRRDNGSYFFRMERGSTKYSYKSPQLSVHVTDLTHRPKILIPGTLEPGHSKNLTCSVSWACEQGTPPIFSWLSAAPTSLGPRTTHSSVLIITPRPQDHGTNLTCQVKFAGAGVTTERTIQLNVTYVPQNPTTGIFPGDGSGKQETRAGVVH
Experiment: BLI (ForteBio), Fab 100 nM on immobilized CD33
endpoint name: kon (M⁻¹ s⁻¹)
Response body: numeric value in M⁻¹ s⁻¹, unit text excluded.

Consider the worked cases shown below.
>>> observed_result("AB-14.9 (antibody, V domains shown) VH: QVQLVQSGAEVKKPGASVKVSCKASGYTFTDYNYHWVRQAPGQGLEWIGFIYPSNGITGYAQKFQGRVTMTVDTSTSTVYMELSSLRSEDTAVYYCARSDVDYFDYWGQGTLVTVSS VL: GIQMTQSPSSLSASVGDRVTITCRASQSVGTSTYSYMHWYQQKPGKAPKLLIKYAVNLESGVPSRFSGSGSGTDFTLTISSLQPEDFATYYCQHSWEIPLTFGQGTKLEIK")
921000
>>> observed_result("AB-14.11 (antibody, V domains shown) VH: QVQLVQSGAEVKKPGASVKVSCKASGYTFTDYNYHWVRQAPGQGLEWIGFIYPSNGITGYAQKFQGRVTMTVDTSTSTVYMELSSLRSEDTAVYYCARSSVDYFDYWGQGTLVTVSS VL: DIQMTQSPSSLSASVGDRVTITCRASQDVSTSTYSYMHWYQQKPGKAPKLLIKYVSNLESGVPSRFSGSGSGTDFTLTISSLQPEDFATYYCQHSWEIPLTFGQGTKLEIK")
974000
>>> observed_result("AB-H63 (antibody, V domains shown, Humanized variant of murine 2F5.1) VH: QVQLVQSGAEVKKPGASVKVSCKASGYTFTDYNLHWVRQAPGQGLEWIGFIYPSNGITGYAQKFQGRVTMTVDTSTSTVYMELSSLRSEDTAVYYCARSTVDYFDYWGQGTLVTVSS VL: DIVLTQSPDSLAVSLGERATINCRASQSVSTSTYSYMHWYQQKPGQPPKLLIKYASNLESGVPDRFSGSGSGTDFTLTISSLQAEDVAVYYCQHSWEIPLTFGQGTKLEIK")
615000
>>> observed_result("AB-14.10 (antibody, V domains shown) VH: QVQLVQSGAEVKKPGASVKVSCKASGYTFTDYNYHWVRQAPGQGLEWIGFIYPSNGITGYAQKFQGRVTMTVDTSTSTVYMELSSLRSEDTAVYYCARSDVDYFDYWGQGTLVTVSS VL: DIQMTQSPSSLSASVGDRVTITCRASQSVSASTYSYMHWYQQKPGKAPKLLIKYASNLESGVPSRFSGSGSGTDFTLTISSLQPEDLATYYCQHSWEIPLTFGQGTKLEIK")
906000
>>> observed_result("AB-14.8 (antibody, V domains shown) VH: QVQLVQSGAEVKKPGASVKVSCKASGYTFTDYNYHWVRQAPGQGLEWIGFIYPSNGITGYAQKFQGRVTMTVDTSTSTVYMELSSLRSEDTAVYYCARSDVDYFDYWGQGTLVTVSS VL: DIQMTQSPSSLPASVGDRVTITCRASQSVGTSTYSYMHWYQQKPGKAPKLLIKYASNLGSGVPSRFSGSGSGTDFTLTISSLQPEDFATYYCQHSWEIPLTFGQGTKLEIK")
935000

Query: Consider the binder AB-14.7 (antibody, V domains shown) VH: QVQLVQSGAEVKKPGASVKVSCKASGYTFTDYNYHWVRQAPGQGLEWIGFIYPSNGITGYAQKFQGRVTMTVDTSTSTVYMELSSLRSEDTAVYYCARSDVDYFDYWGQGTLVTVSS VL: DIQMTQSPSSLSASVGDRVTITCRASQSVGTSTYSYMHWYQQKPGKAPKLLIKYASNLESGVPSRFSGSGSGTDFTLTISSLQPEDFATYYCQHSWEIPLTFGQGTKLEIK and give its measured kon.
Result: 813000

Query: And AB-14.3 (antibody, V domains shown) VH: QVQLVQSGAEVKKPGASVKVSCKASGYTFTDYNYHWVRQAPGQGLEWIGFIYPSNGITGSAQKFQGRVTMTVDTSTSTVYMELSSLRSEDTAVYYCARSDVDYFDYWGQGTLVTVSS VL: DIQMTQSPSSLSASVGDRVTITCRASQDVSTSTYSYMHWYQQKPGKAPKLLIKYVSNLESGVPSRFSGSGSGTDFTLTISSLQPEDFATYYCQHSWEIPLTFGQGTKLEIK ?
Result: 847000
